Origin of the recorded values: ChEMBL document CHEMBL3046303

System: Meloidogyne incognita
test_description: Nematotoxic activity against freshly hatched Meloidogyne incognita J2 (root-knot nematode) isolated from tomato roots assessed as induction of nematode paralysis measured 24 hr after immersion in compound test solutions
Type: functional, organism-based
measured_property: EC50

[[record]]
compound = "O=C(O)c1ccccc1 [BENZOIC ACID]"
study_system = "Meloidogyne incognita"
measured_property = "EC50"
observed_measurement = "501 µg/mL"

[[record]]
compound = "Oc1cc(O)c2c(c1)O[C@@H](c1ccc(O)c(O)c1)[C@@H](O)C2 [(+)-EPICATECHIN]"
study_system = "Meloidogyne incognita"
measured_property = "EC50"
observed_measurement = "> 1000 µg/mL"

[[record]]
compound = "O=C(O)CC(O)C(=O)O (stereo not drawn) [MALIC ACID]"
study_system = "Meloidogyne incognita"
measured_property = "EC50"
observed_measurement = "> 1000 µg/mL"

[[record]]
compound = "COc1cc(/C=C/C(=O)O)ccc1O [FERULATE]"
study_system = "Meloidogyne incognita"
measured_property = "EC50"
observed_measurement = "> 1000 µg/mL"

[[record]]
compound = "O=C(O)c1ccc2ccccc2c1 [BETA-NAPHTOIC ACID]"
study_system = "Meloidogyne incognita"
measured_property = "EC50"
observed_measurement = "> 1000 µg/mL"

[[record]]
compound = "O=C(O)c1cccnc1 [NIACIN]"
study_system = "Meloidogyne incognita"
measured_property = "EC50"
observed_measurement = "1730 µg/mL"

[[record]]
compound = "C[C@@H]1O[C@@H](OC[C@H]2O[C@@H](Oc3c(-c4ccc(O)c(O)c4)oc4cc(O)cc(O)c4c3=O)[C@H](O)[C@@H](O)[C@@H]2O)[C@H](O)[C@H](O)[C@H]1O [RUTIN]"
study_system = "Meloidogyne incognita"
measured_property = "EC50"
observed_measurement = "> 1000 µg/mL"

[[record]]
compound = "O=C(O)c1ccccc1O [SALICYLIC ACID]"
study_system = "Meloidogyne incognita"
measured_property = "EC50"
observed_measurement = "379 µg/mL"

